GI50: recorded values
tested on: SF-295; assay: NCI tumour cell line growth inhibition, 48 h
Activity calls are given as the source filed them. Cut-off read from the data, not from the text of the source: active = GI50 up to about 1.1 µM and inactive = higher.

{"molecule": "O=C1c2ccccc2C(=O)c2c1ccc1conc21", "GI50": "2.65 µM (inactive)"}
{"molecule": "C=C(Cl)C(C)(Cl)CCC(Cl)C(C)(C)Cl (stereo unspecified)", "GI50": "> 100 µM (inactive)"}
{"molecule": "CN(C)c1nc(N(C)C)n2nc(-c3ccccc3[N+](=O)[O-])nc2n1", "GI50": "> 100 µM (inactive)"}
{"molecule": "C[N+](C)([O-])CCCNc1ccnc2cccc([N+](=O)[O-])c12", "GI50": "92.7 µM (inactive)"}
{"molecule": "N[C@H](COCc1ccccc1)c1ccccc1", "GI50": "30.5 µM (inactive)"}
{"molecule": "CC[N+]1(C)CCC(O)(c2ccc(C)cc2)C(C(=O)c2ccc(C)cc2)C1 (stereo unspecified)", "GI50": "37.4 µM (inactive)"}
